Test system: T-47D breast
Test: NCI tumour cell line growth inhibition, 48 h
Measured TGI of individual entries
Endpoint: TGI

compound="Cc1cc(=O)oc2cc(OCC(O)COC(C)C)ccc12 (stereo unspecified)" value="> 100 µM"
compound=CN1CCN(Cc2ccc(NC(=O)c3cncc(C#Cc4cnc(N)c5cccnc45)c3)cc2C(F)(F)F)CC1 value="> 50 µM"
compound=Cc1ccc(C)n2c1nc1ccccc12 value="> 100 µM"
compound="CC(C)=CCCC(C)CCOS(=O)C(F)(F)F (stereo unspecified)" value="> 100 µM"
compound=CCCCCCCC/C=C/CCCCCCCC1=NC(C)(C)CN1CCO value="4.34 µM"
compound=Cc1cc(-c2cc(O)ccc2Cl)cc2nnc(Nc3ccc(OCCN4CCCC4)cc3)nc12 value="3.95 µM"

---

A collection of compounds and their measured TGI
System: UACC-62 melanoma
Experiment: NCI tumour cell line growth inhibition, 48 h
Endpoint: TGI

compound=CC(C)=CCC[C@@H](C)C1=C(O)C(Nc2ccccc2Cl)=C(C)C(=O)C1=O measured_target="UACC-62 melanoma" value="36 µM"
compound=COc1cc(OC)cc(-c2cc(=O)c3cc4c(cc3[nH]2)OCO4)c1 measured_target="UACC-62 melanoma" value="> 53.3 µM"
compound=Fc1ccc2c3c([nH]c2c1)CCN(Cc1ccccc1)C3 measured_target="UACC-62 melanoma" value="35.2 µM"
compound="COc1ccccc1/C=C/C1=NN(c2cccc(S(=O)(=O)O)c2)C2(C1)C(Cl)C(=O)N2c1nc2ccccc2s1 (centres undefined)" measured_target="UACC-62 melanoma" value="> 100 µM"
compound=COC(=O)CCNC(=O)OCc1ccccc1 measured_target="UACC-62 melanoma" value="> 100 µM"
compound="CN(C)c1c(C2OC(CO)C(O)C2O)c(=O)c1=O (centres undefined)" measured_target="UACC-62 melanoma" value="> 100 µM"
compound=CCOC(=O)/C=C(/C(=O)OCC)n1ccc(=O)n(Cc2cnnn2COCCOC(C)=O)c1=O measured_target="UACC-62 melanoma" value="32.8 µM"
compound=Cc1cc(C)c(-c2noc(-c3ccc(Cl)cc3)c2C2=NCCCN2)c(C)c1 measured_target="UACC-62 melanoma" value="40.7 µM"
compound=Clc1ccccc1-c1nnc2c(Cc3ccccc3)nc3ccccc3n12 measured_target="UACC-62 melanoma" value="> 100 µM"
compound=Cc1c(CCCl)c(N=P(c2ccccc2)(c2ccccc2)c2ccccc2)n2c(nc3ccccc32)c1C#N measured_target="UACC-62 melanoma" value="> 10 µM"
compound="NC1CCC(N(CC(=O)O)CC(=O)O)C(N(CC(=O)O)CC(=O)O)C1 (centres undefined)" measured_target="UACC-62 melanoma" value="> 100 µM"
compound=O=C1c2ccccc2-c2c1c1ccccc1c(=O)n2CCCNCCn1c2c(c3ccccc3c1=O)C(=O)c1ccccc1-2 measured_target="UACC-62 melanoma" value="19.3 µM"
compound=S=c1ncc2c([nH]1)C1c3ccccc3C2c2ccccc21 measured_target="UACC-62 melanoma" value="> 100 µM"
compound=CCOC(=O)c1c(NC(=S)Nc2ccc(Cl)cc2)sc2c1CCN(C)C2 measured_target="UACC-62 melanoma" value="> 100 µM"
compound="O=C(CCN1CCCCC1)N1CCc2c([nH]c3ccccc23)C1c1cccnc1 (centres undefined)" measured_target="UACC-62 melanoma" value="42.2 µM"
compound=CC(=O)O[C@H]1C(=O)[C@@]2(C)[C@H]([C@H](OC(=O)c3ccccc3)[C@]3(O)C[C@H](OC(=O)[C@H](O)[C@@H](NC(=O)c4ccco4)c4ccccc4)C(C)=C1C3(C)C)[C@]1(OC(C)=O)CO[C@@H]1C[C@@H]2O measured_target="UACC-62 melanoma" value="> 12.5 µM"
compound=COc1cc(C(=O)c2cnc(-c3cccc4[nH]ccc34)[nH]2)cc(OC)c1OC measured_target="UACC-62 melanoma" value="93.6 µM"
compound=CC(=O)[CH-]C(=O)c1ccccc1.CC(=O)[CH-]C(=O)c1ccccc1.CC(=O)[CH-]C(=O)c1ccccc1.[Nd+3].[OH3+] measured_target="UACC-62 melanoma" value="> 100 µM"
compound="COc1cc(C2(c3ncc[nH]3)SSSCC2O)ccc1O (centres undefined)" measured_target="UACC-62 melanoma" value="> 51.2 µM"

Data provenance: PubChem BioAssay (NCI)
